The measured values listed here are drawn from the supplement of paper PMC8967900.

System: COG-LL-332h;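 also: ALL cell lines in 384-well plates, five doses spanning 10,000-fold, each plate scaled between vehicle and 100 µmol/L benzalkonium chloride controls, sDSS an adapted area-under-curve metric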
Assay: selective drug sensitivity score (sDSS, relative to normal bone marrow) (sDSS (score)); higher = more potent and effective on the cell line relative to normal bone marrow cells
Conditions: 72 h

compound	selective drug sensitivity score
COc1cc(N2CCN(C)CC2)ccc1Nc1nccc(-c2cn(C)c3cnccc23)n1 [AZ191] (top concentration 10000 nM)	-0.02
COc1ccc(COc2cc3oc(=O)c4cc(C(C)O)ccc4c3cc2OC)cc1 (stereo unspecified) [Palomid-529] (top concentration 10000 nM)	0.46
CO[C@H]1C[C@@H]2CC[C@@H](C)[C@@](O)(O2)C(=O)C(=O)N2CCCC[C@H]2C(=O)O[C@H]([C@H](C)C[C@@H]2CC[C@@H](OCCO)[C@H](OC)C2)CC(=O)[C@H](C)/C=C(\C)[C@@H](O)[C@@H](OC)C(=O)[C@H](C)C[C@H](C)/C=C/C=C/C=C/1C [Everolimus] (top concentration 100 nM)	4.5
Cn1cc(CNCC2CCN(c3ncc(C(=O)NO)cn3)CC2)c2ccccc21 [Quisinostat] (top concentration 1000 nM)	1.48
CCc1c(C(=O)C(N)=O)c2c(OCC(=O)O)cccc2n1Cc1ccccc1 [Varespladib] (top concentration 10000 nM)	-0.64
CC(=O)O[C@@]12CO[C@@H]1C[C@H](O)[C@@]1(C)C(=O)[C@H](O)C3=C(C)[C@@H](OC(=O)[C@H](O)[C@@H](NC(=O)OC(C)(C)C)c4ccccc4)C[C@@](O)([C@@H](OC(=O)c4ccccc4)[C@H]21)C3(C)C [Docetaxel] (top concentration 1000 nM)	22.2
